- Tested on: ERN1
- REPORTED_CONDITIONS: concentration: 1 μM,replicates: in singlicate; n = 1
Answer each item with its documented %Inh.
Give bare numbers, in %.

Consider the worked cases shown below.
COMPOUND: C[C@@H](Oc1cc(-n2cnc3cc(-c4cnn(C)c4)ccc32)sc1C(N)=O)c1ccccc1Cl
SYSTEM_UNDER_TEST: ERN1
%Inh, %: 3
//
COMPOUND: O=C(Nc1cccc(C(F)(F)F)c1)c1cccc(Oc2ccc3nccn3n2)c1
SYSTEM_UNDER_TEST: ERN1
%Inh, %: 29
//
COMPOUND: CC(C(=O)NC1CCN(c2ccnc(Nc3ccc(F)cc3)n2)C1)c1ccc(Cl)cc1 (stereo not drawn)
SYSTEM_UNDER_TEST: ERN1
%Inh, %: 0
//
COMPOUND: CC(=O)Nc1nc2cnc(Nc3cc(NC(=O)c4cccc(CC(C)(C)C#N)c4)ccc3C)nc2s1
SYSTEM_UNDER_TEST: ERN1
%Inh, %: 0
//
COMPOUND: Cn1ccc2ncnc(Oc3ccc(NC(=O)Nc4ccnc(C(F)(F)F)c4)c(Cl)c3)c21
SYSTEM_UNDER_TEST: ERN1
%Inh, %: 11
//
COMPOUND: OCCn1cc(-c2cnc3nnn(Cc4ccc5ncccc5c4)c3n2)cn1
SYSTEM_UNDER_TEST: ERN1
%Inh, %: 0
//
COMPOUND: CC(=O)Nc1ccc(-c2cc3ncnc(SCC(=O)O)c3s2)cc1
SYSTEM_UNDER_TEST: ERN1
%Inh, %: 10
//
COMPOUND: C[C@@H](Oc1cc(-n2cnc3ccc(-c4ccncc4)cc32)sc1C(N)=O)c1ccccc1Cl
SYSTEM_UNDER_TEST: ERN1;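 also: KINOMEscan kinase panel screen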
%Inh, %: 3

Hi! Can you tell me %Inh for each of these compounds?
1. Cn1ccc2ncnc(Oc3ccc(NC(=O)Nc4cc(C(C)(C)C)on4)c(Cl)c3)c21
2. Nc1nccc(-c2ccc3c(N)n[nH]c3c2)n1
3. Cn1ccc2ncnc(Oc3ccc(NC(=O)Nc4cccc(C(F)(F)F)c4)c(Cl)c3)c21
4. CS(=O)c1ccc(-c2coc3ccc(-c4n[nH]c(=O)o4)cc23)cc1 (stereo not drawn)
5. Cn1cc(-c2cccc3c(N)c(C(N)=O)nnc23)cn1
6. Cc1ccn2nc(-c3ccc(F)cc3)c(-c3ccncc3)c2c1.Cl

49
0
15
0
33
0

Hi! Can you tell me %Inh for each of these compounds?
1. O=C(Nc1ccccc1)c1cccc(Oc2ccc3nccn3n2)c1
2. O=c1[nH]cc(-c2ccc(O)cc2)c2sc(-c3ccncc3)cc12
3. CS(=O)(=O)c1cccc(CNc2nc(Nc3ccc4c(c3)[C@@H]3C[C@@H]4CNC3=O)ncc2C(F)(F)F)c1
4. Cc1nnc(-c2ccc3occ(-c4ccc(S(C)=O)cc4)c3n2)o1 (stereo not drawn)

[22, 0, 17, 0]

Hi! Can you tell me %Inh for each of these compounds?
1. CCOC(=O)N1CCC(n2cnc(-c3ccc(F)cc3)c2-c2ccnc(N)n2)CC1
2. Cl.Cl.NC[C@H](CC1CCCCC1)NC(=O)c1ccc(-c2ccnc3[nH]ccc23)s1
3. CS(=O)(=O)Nc1ccc(-c2ccnc3[nH]ccc23)cc1

[19, 6, 25]

Hi! Can you tell me %Inh for each of these compounds?
1. C[C@@H]1CNc2c(sc3ccc4nc(-c5ccncc5)ccc4c23)C(=O)N1
2. COc1cc(Nc2nccc(N3CCC(NC(=O)c4cccc(C#N)c4)C3)n2)cc(OC)c1OC (stereo not drawn)

1. 0
2. 0

What %Inh value was documented for this compound, `c1ccc(Oc2ccc(Nc3ccnc4ccc(-c5ccccn5)cc34)cc2)cc1` ?
0
